- Species on record: Rattus norvegicus
- method.summary: Open TG-GATES - Regimen: Daily Repeat
- Assay type: toxicity, organism-based, Sprague-Dawley
- Design: regimen Daily Repeat, gender Male, age 6 weeks
- assay.setup: in vivo, po, 300 mg/kg, […], tissue Blood, route gavage, dose level Middle, time 7 day

{"molecule": "COc1ccc2[nH]c([S+]([O-])Cc3ncc(C)c(OC)c3C)nc2c1 (stereo not given)", "Plat, x10_4/uL": 156.8}
{"molecule": "NC(N)=Nc1nc(CSCCC(N)=NS(N)(=O)=O)cs1", "Plat, x10_4/uL": 114.6}
{"molecule": "CCOC(=O)CCC(=O)O[C@H]1[C@H](O[C@@H]2[C@@H](C)[C@H](O[C@H]3C[C@@](C)(OC)[C@@H](O)[C@H](C)O3)[C@@H](C)C(=O)O[C@H](CC)[C@@](C)(O)[C@H](O)[C@@H](C)C(=O)[C@H](C)C[C@@]2(C)O)O[C@H](C)C[C@@H]1N(C)C [ERYTHROMYCIN ETHYLSUCCINATE]", "Plat, x10_4/uL": 120.3}
{"molecule": "CCOc1ccc(NC(=O)CC(C)O)cc1 (stereo not given)", "Plat, x10_4/uL": 120}
{"molecule": "COC1=CC(=O)C[C@@H](C)[C@]12Oc1c(Cl)c(OC)cc(OC)c1C2=O", "Plat, x10_4/uL": 140.6}

* * *

- Organism: Rattus norvegicus
- method.summary: Open TG-GATES - Regimen: Single
- Assay type: toxicity, organism-based, Sprague-Dawley
- Set-up: regimen Single, gender Male, age 6 weeks
- assay.setup: in vivo, po, 0 mg/kg, 9 h, tissue Plasma, route gavage, dose level Control
Property: TG; scope: individual molecules

{"molecule": "CN(C)CCCN1c2ccccc2CCc2ccc(Cl)cc21", "TG / mg/dL": 51.2}
{"molecule": "Cc1ccc(C)c(OCCCC(C)(C)C(=O)O)c1", "TG / mg/dL": 60.4}
{"molecule": "COc1ccc2[nH]c([S+]([O-])Cc3ncc(C)c(OC)c3C)nc2c1 (stereo not given)", "TG / mg/dL": 54.6}
{"molecule": "COc1cc2c(c(OC)c1OC)-c1ccc(OC)c(=O)cc1[C@@H](NC(C)=O)CC2", "TG / mg/dL": 40}
{"molecule": "NNC(=O)c1ccncc1", "TG / mg/dL": 54.6}

* * *

- Species: Rattus norvegicus
- method.summary: Open TG-GATES - Regimen: Single
- Format: toxicity, organism-based, Sprague-Dawley
- Set-up: regimen Single, gender Male, age 6 weeks
- assay.setup: in vivo, po, 0 mg/kg, 6 h, tissue Blood, route gavage, dose level Control

{"compound": "NC(N)=Nc1nc(CSCCC(N)=NS(N)(=O)=O)cs1", "Neu (%)": 15.2}
{"compound": "COC1=CC(=O)C[C@@H](C)[C@]12Oc1c(Cl)c(OC)cc(OC)c1C2=O", "Neu (%)": 16}
{"compound": "CN1C(=O)CN=C(c2ccccc2)c2cc(Cl)ccc21", "Neu (%)": 15.8}
{"compound": "CCOC(=O)CCC(=O)O[C@H]1[C@H](O[C@@H]2[C@@H](C)[C@H](O[C@H]3C[C@@](C)(OC)[C@@H](O)[C@H](C)O3)[C@@H](C)C(=O)O[C@H](CC)[C@@](C)(O)[C@H](O)[C@@H](C)C(=O)[C@H](C)C[C@@]2(C)O)O[C@H](C)C[C@@H]1N(C)C [ERYTHROMYCIN ETHYLSUCCINATE]", "Neu (%)": 20.2}
{"compound": "Cc1ccc(C)c(OCCCC(C)(C)C(=O)O)c1", "Neu (%)": 19.2}
{"compound": "NNC(=O)c1ccncc1", "Neu (%)": 14.6}
{"compound": "CN(C)CCN(Cc1cccs1)c1ccccn1", "Neu (%)": 12.4}
{"compound": "CN(C)CCCN1c2ccccc2CCc2ccc(Cl)cc21", "Neu (%)": 19.2}

# credit: ChEMBL document CHEMBL3885861
